Reported pIC50 is given for each of the following compounds.
- Tested on: MCF7
- assayDetails: Cytotoxicity activity against human MCF7 cells expressing p53 mutant by MTT assay
- Format: functional, cell-based
pIC50: −log10 of the molar value.

smilesText: CN[C@@H](Cc1cn(C)c2ccccc12)C(=O)N[C@H](C(=O)N(C)[C@H](/C=C(\C)C(=O)O)C(C)C)C(C)(C)C
testedOn: MCF7
pIC50: 7.22
//
smilesText: CCOC(=O)/C(C)=C/[C@H](C(C)C)N(C)C(=O)[C@@H](NC(=O)[C@@H](NC)C(C)(C)c1ccccc1)C(C)(C)C
testedOn: MCF7
pIC50: 8.15
//
smilesText: CN[C@H](C(=O)N[C@H](C(=O)N[C@H](/C=C(\C)C(=O)O)C(C)C)C(C)(C)C)C(C)(C)C
testedOn: MCF7
pIC50: 5.80
//
smilesText: CN[C@H](C(=O)N[C@H](C(=O)N(C)[C@H](/C=C(\C)C(=O)O)C(C)C)C(C)C)C(C)(C)c1c[nH]c2ccccc12
testedOn: MCF7
pIC50: 8.15

Hey, just so you know, these numbers are from ChEMBL document CHEMBL1158900.
